# System: Candida albicans
# protocol.description: Antimicrobial activity against Candida albicans ATCC 90028 after 48 hrs by broth dilution method
# Assay type: functional
# conditions.used: ATCC 90028, 48 h
readout.kind: MIC (µg/mL)

COc1ccc(-c2nn3c(-c4ccc(S(=O)(=O)c5ccccc5)cc4)nnc3s2)cc1 = 512
Nc1ccc(-c2nn3c(-c4ccc(S(=O)(=O)c5ccc(Br)cc5)cc4)nnc3s2)cc1 = 512
NCc1ccc(-c2nn3c(-c4ccc(S(=O)(=O)c5ccc(Br)cc5)cc4)nnc3s2)cc1 = 512
COc1ccc(-c2nn3c(-c4ccc(S(=O)(=O)c5ccc(Br)cc5)cc4)nnc3s2)cc1 = 512
O=S(=O)(c1ccccc1)c1ccc(-c2nnc3sc(-c4ccc(Cl)c(Br)c4)nn23)cc1 = 512

[P] COc1ccc(Nc2nn3c(-c4ccc(S(=O)(=O)c5ccccc5)cc4)nnc3s2)cc1
[Q] O=S(=O)(c1ccccc1)c1ccc(-c2nnc3sc(-c4ccc(Br)cc4)nn23)cc1
[R] COc1ccc(Nc2nn3c(-c4ccc(S(=O)(=O)c5ccc(Br)cc5)cc4)nnc3s2)cc1
Data request: Order the 3 compounds from highest to lowest MIC. Form field (ranking): labels in requested order.
Data returned: Q, P, R
(Q: 1020 µg/mL, P: 256 µg/mL, R: 128 µg/mL)

* * *

# System: Acinetobacter baumannii
# protocol.description: Antimicrobial activity against Acinetobacter baumannii ATCC 19606 after18 to 20 hrs by broth dilution method
# Format: functional
readout.kind: MIC (µg/mL)

For orientation, consider the following solved cases.
Cc1ccc(Nc2nn3c(-c4ccc(S(=O)(=O)c5ccc(Br)cc5)cc4)nnc3s2)cc1 = 1020
COc1ccc(Nc2nn3c(-c4ccc(S(=O)(=O)c5ccc(Br)cc5)cc4)nnc3s2)cc1 = 128
NCc1ccc(-c2nn3c(-c4ccc(S(=O)(=O)c5ccc(Br)cc5)cc4)nnc3s2)cc1 = 1020
O=S(=O)(c1ccccc1)c1ccc(-c2nnc3sc(-c4cc(O)c(O)c(O)c4)nn23)cc1 = 1020
O=S(=O)(c1ccc(Br)cc1)c1ccc(-c2nnc3sc(-c4ccc(Cl)c(Br)c4)nn23)cc1 = 512

[P] O=S(=O)(c1ccccc1)c1ccc(-c2nnc3sc(-c4ccc(Cl)c(Br)c4)nn23)cc1
[Q] Nc1ccc(-c2nn3c(-c4ccc(S(=O)(=O)c5ccc(Br)cc5)cc4)nnc3s2)cc1
Data request: Compare the recorded MIC of P and Q ; state which is larger. Please reply using the label of the selected record.
Data returned: Q
(Q: 1020 µg/mL, P: 256 µg/mL)

[a] O=S(=O)(c1ccc(Br)cc1)c1ccc(-c2nnc3sc(-c4ccc(Cl)cc4)nn23)cc1
[b] O=S(=O)(c1ccccc1)c1ccc(-c2nnc3sc(-c4ccc(Br)cc4)nn23)cc1
[c] COc1ccc(Nc2nn3c(-c4ccc(S(=O)(=O)c5ccccc5)cc4)nnc3s2)cc1
Data request: Hi! Can you put these in order of MIC, lowest number first? Form field (ranking): labels in requested order.
Data returned: c, a, b

* * *

# Tested on: Staphylococcus aureus
# protocol.description: Antimicrobial activity against Staphylococcus aureus ATCC 25923 after18 to 20 hrs by broth dilution method
# Assay type: functional
readout.kind: MIC (µg/mL)

O=S(=O)(c1ccc(Br)cc1)c1ccc(-c2nnc3sc(Nc4ccc(Br)cc4)nn23)cc1 = 512

[a] O=S(=O)(c1ccccc1)c1ccc(-c2nnc3sc(-c4ccc(Cl)cc4)nn23)cc1
[b] O=S(=O)(c1ccccc1)c1ccc(-c2nnc3sc(-c4cc(O)c(O)c(O)c4)nn23)cc1
Data request: Compare the recorded MIC of a and b ; state which is larger. Please reply using the label of the selected record.
Data returned: b
(b: 512 µg/mL, a: 256 µg/mL)
